target: native soluble IL-6R in human plasma (human, UniProt P08887); experiment: ELISA 1, periplasmic extract; competitor IL-6; human plasma

# binder, OD450 ratio sample/blank
measured = [
    ("IL6RPMP104A8 (VHH) VHH: EVQLVESGGGLVQAGGSLRLSCTASGRTFSDYDMGWFRQAPGKEREFVAVIDTNGGHTLTVGSVKGRFAISSDNAKNTVYLQMNSLVPEDTAVYTCAAGAWSSLRKTAASYWGQGTQVTVSS", 2.04),
    ("IL6RPMP107H5 (VHH) VHH: EVPLVESGGGLVQAGGSLNLSCNASGDIGSINAMGWYRQAPGQQREWVAVITDTDSTIYPDSVKGRFAISRDGAKNTVHLRMSSLKPEDTAVYYCNAYQAGWGDYWGQGTQVTVSS", 0.901),
]
